Value source: PubChem BioAssay AID687022

# target: Fibroblast growth factor 22 (Homo sapiens)
# method_notes: FGF22 ligand-induced thermal stabilization – biophysical, thermal shift, cherry-pick, FGF22 synaptogenesis inhibitor project, dose response (AID 687022)
# assay_setup: recombinant FGF22 thermal shift, SYPRO orange melting
Activity calls are given as the source filed them.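 The calls were made as follows: active = Fitted curve of melting temperature shift crosses the 1.0 threshold at or below the sample's highest valid tested concentration; inconclusive = Flat fit with activity 30 to 70, or invalid fit; inactive = Opposite direction, flat within 30, or no crossing.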
Outcome codes: active, inactive

1. COc1cccc(NC(=O)CN(C)C(=O)c2cn(-c3ccccc3)nc2-c2cccs2)c1	active
2. Cc1ccn(-c2ccc(NC(=O)c3cccs3)cc2)n1	active
3. O=C(O)c1ccc(NC(=O)c2cccc(S(=O)(=O)Nc3ccc(C(=O)O)cc3)c2)cc1	inactive
4. O=C(N/N=C/c1c[nH]c2ccccc12)c1ccc(O)c(O)c1	active
5. COC(=O)CN1C(=S)N(c2ccc(Cl)cc2)C(=O)C1CC(=O)Nc1ccc(F)cc1 (configuration not stated)	active
6. Cn1c(=O)c2c(-c3ccccc3)n(-c3cc(Cl)c([N+](=O)[O-])cc3O)cc2n(C)c1=O	active
7. NS(=O)(=O)c1cccc(NC(=O)COC(=O)c2cc([N+](=O)[O-])ccc2N2CCCC2)c1	active
8. COc1cc(/C=N/NC(=O)CCn2c3ccccc3c3ccccc32)ccc1O	active
9. O=C(NNC(=O)C1CCN(S(=O)(=O)c2ccccc2C(F)(F)F)CC1)c1ccccc1O	active
10. COc1ccc(Cc2nnc(NS(=O)(=O)c3ccccc3)s2)cc1	inactive
11. COc1ccc(-c2csc(NC(=O)CN3C(=O)C4CCCCC4C3=O)n2)c(OC)c1 (configuration not stated)	active
12. NC(=NCCc1c[nH]c2ccccc12)NS(=O)(=O)c1ccc(F)cc1	active
13. NS(=O)(=O)c1ccc(NC(=O)Nc2cccc(Cl)c2)cc1	active
14. COc1ccc(NC(=O)N(C)C[C@@H]2Oc3ccc(NC(=O)Cc4ccccc4)cc3C(=O)N([C@H](C)CO)C[C@H]2C)cc1	active
15. O=C1C(=O)C(c2ccccc2)C(=O)C1c1ccccc1 (configuration not stated)	active
16. C[C@H](CO)N1C[C@H](C)[C@H](CN(C)C(=O)Nc2ccc3c(c2)OCO3)Oc2cc(C3=CCCC3)ccc2S1(=O)=O	active
17. CC1(C(=O)NS(=O)(=O)c2ccc(Cl)cc2)CCN1C(=O)Cc1ccc(Cl)cc1Cl (configuration not stated)	inactive
18. O=C(CCc1c[nH]c2ccccc12)Nc1ccc(Oc2cccnc2)cc1	active
19. CCCOc1ccc(NC(=O)CC2C(=O)N(C)C(=S)N2Cc2ccc3c(c2)OCO3)cc1 (configuration not stated)	active
20. O=Cc1cc(OCc2ccccc2)ccc1[B-](F)(F)F	active
21. CC(C)n1c(=O)c2ccccc2n1Cc1cn(-c2ccc(Cl)cc2)nn1	active
22. O=C(N/N=C/c1c[nH]c2ccccc12)c1cccs1	active
23. O=C(CN1C(=O)NC2(CCOc3ccccc32)C1=O)Nc1ccc(Br)cc1F (configuration not stated)	active
24. Cc1ccc(C(=O)Nc2nc(=O)n(C(=O)C3CC3)s2)cc1	active
25. Cc1cc(C(=O)N/N=C/c2c[nH]c3ccccc23)cs1	active
26. O=C1Nc2cc(Cl)c(Cl)cc2N(O)N1c1ccc(Cl)cc1	active
27. O=[N+]([O-])c1ccc2nc(NS(=O)(=O)c3ccccc3[N+](=O)[O-])sc2c1	active
28. COc1ccc(C(=O)Nc2nc(CC(=O)NCCc3ccccc3)cs2)cc1	active
29. NC(=O)c1ccsc1NC(=O)COC(=O)Cc1c[nH]c2ccccc12	active
30. O=C(O)c1cccc(NS(=O)(=O)c2ccc(-c3ccc(S(=O)(=O)Nc4cccc(C(=O)O)c4)cc3)cc2)c1	active
31. O=C(Nc1ccc(C(=O)O)cc1)Nc1ccc([N+](=O)[O-])cc1	active
32. Cc1ccsc1C(=O)NNC(=O)c1ccc(NS(=O)(=O)c2cccs2)cc1	active
33. CSc1nc2nc(Cl)c(Cl)nc2[nH]1	inactive
34. O=C(Nc1nc(-c2ccccn2)cs1)c1cccc(S(=O)(=O)N2CCOCC2)c1	active
35. O=C(N/N=C/c1ccsc1)c1c[nH]c2ccccc12	active
36. O=C(N/N=C/c1cccc(Oc2ccccc2)c1)c1cccc(O)c1	active
37. O=C(N/N=C/c1ccc(OCc2ccccc2)cc1)c1ccc(O)cc1	active
38. Cc1noc(NS(=O)(=O)c2ccc(NC(=O)c3cccc(S(=O)(=O)N(C)c4ccccc4)c3)cc2)c1C	active
39. C/C(=N\NC(=O)c1cccc(S(=O)(=O)N2CCOCC2)c1)c1ccc(OC(F)F)cc1	active
40. O=C(CNC(=O)c1cccc(Br)c1)N/N=C/c1cc(Br)cc(Br)c1O	inactive
41. O=C(O)Cc1ccc(NC(=O)c2ccc(Cl)c(Cl)c2)cc1	active
42. COc1cc(NC(=O)c2cnc(N)s2)cc(C(=O)Nc2cccc(C(F)(F)F)c2)c1	active

====

# target: Fibroblast growth factor 22 (Homo sapiens) (UniProt Q9HCT0)
# Sequence (Q9HCT0 whole entry, looked up): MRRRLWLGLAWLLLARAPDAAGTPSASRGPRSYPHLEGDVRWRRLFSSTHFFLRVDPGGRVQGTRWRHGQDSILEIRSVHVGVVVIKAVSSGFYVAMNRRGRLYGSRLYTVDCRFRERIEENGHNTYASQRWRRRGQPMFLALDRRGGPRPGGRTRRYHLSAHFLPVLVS
# method_notes: FGF22 ligand-induced thermal stabilization – biophysical, thermal shift, cherry-pick, FGF22 synaptogenesis inhibitor project, dose response (AID 687022)
# assay_setup: recombinant FGF22 thermal shift, SYPRO orange melting
endpoint_name: AbsAC1 (concentration giving Tm-shift threshold 1.0)

1) CCN1C/C(=C/c2cccs2)c2nc3ccccc3c(C(=O)O)c2C1	3.02 µM
2) O=C(Nc1ccc(F)cc1)N[C@H]1CC[C@@H](CCn2cc(-c3ccccc3F)nn2)O[C@@H]1CO	7.38 µM
3) N#Cc1c(-c2ccccc2)nc(-c2ccncc2)[nH]c1=O	30.3 µM
4) O=C(Nc1cc(Cl)cc(Cl)c1)N[C@@H]1CC[C@@H](CCNS(=O)(=O)c2cccc(F)c2)O[C@H]1CO	5.67 µM
5) O=C(O)c1ccc(Cl)c(S(=O)(=O)Nc2ccc(S(=O)(=O)N3CCCC3)cc2)c1	14.1 µM
6) CCOC(=O)c1sc(N2C(=O)C(O)=C(C(=O)c3ccco3)C2c2ccc([N+](=O)[O-])cc2)nc1C (configuration not stated)	5.28 µM
7) Cc1noc(NC(=O)c2cccc(Cl)c2Cl)c1C#N	32.7 µM
8) COc1ccccc1NC(=O)N[C@@H]1CC[C@H](CCn2cc(-c3ccccc3OC)nn2)O[C@@H]1CO	32 µM
9) CCN(CC)c1ccc(/C=N/NC(=O)c2c[nH]c3ccccc23)cc1	26.8 µM
10) C=C1[C@@H](O)[C@H](Cc2ccccc2)N(Cc2ccccc2Br)S1(=O)=O	15.5 µM
11) COC(=O)C1=C(CS(=O)(=O)c2cc(OC)ccc2OC)NC(=O)NC1c1ccc(O)c(OC)c1 (configuration not stated)	3.09 µM
12) COc1nsnc1NS(=O)(=O)c1ccc(NC(=S)NC(=O)c2cccnc2)cc1	8.95 µM
13) COc1cc(/C=C2/S/C(=N/S(=O)(=O)Cc3ccccc3)NC2=O)c([N+](=O)[O-])cc1OC	3.72 µM
14) CC(C)CCNC(=O)c1onc(CSc2ccncc2)c1C(=O)NCCC(C)C	3.89 µM
15) O=C(NN=Cc1ccc(O)cc1)c1ccccc1NS(=O)(=O)c1cccs1	5.76 µM
16) CCOc1cc(C=NNC(=O)c2cccc(S(=O)(=O)N3CCCC3)c2)ccc1O	6.84 µM
17) CN1C(=O)c2cc(NC(=O)c3cccc(F)c3)ccc2OC[C@H]2O[C@@H](CC(=O)NCc3ccccc3)CC[C@H]21	3.24 µM
18) O=C(N/N=C\c1c[nH]c2ccccc12)c1ccc(O)cc1	1.85 µM
19) COc1ccc(OC)c(Nc2ccc(Nc3cc(OC)ccc3OC)nn2)c1	8.4 µM
20) C[C@@H]1CN([C@@H](C)CO)C(=O)c2cc(NS(=O)(=O)c3ccc(Cl)cc3)ccc2O[C@@H]1CN(C)S(=O)(=O)c1ccc(F)cc1	21.9 µM
21) NC(=O)c1ccsc1NC(=O)COC(=O)CCCOc1ccccc1	5.37 µM
22) O=C(CN1C(=O)NC(Cc2c[nH]c3ccccc23)C1=O)Nc1ccc(Br)cc1F (configuration not stated)	4.93 µM

====

Here, each record is paired with measured AbsAC1 (concentration giving Tm-shift threshold 1.0) data.
# target: UniProt:Q9HCT0
# method_notes: FGF22 ligand-induced thermal stabilization – biophysical, thermal shift, cherry-pick, FGF22 synaptogenesis inhibitor project, dose response (AID 687022)
# assay_setup: recombinant FGF22 thermal shift, SYPRO orange melting
endpoint_name: AbsAC1 (concentration giving Tm-shift threshold 1.0)

1. CC(C)CC(=O)Nc1ccc(C(=O)CN2C(=O)NC3(CCOc4ccccc43)C2=O)cc1 (stereo not drawn)	6.42 µM
2. Cc1ccc2nc(-c3ccc(NC(=O)COCC(=O)O)cc3)sc2c1	3.64 µM
3. COc1ccc2c(/C=N/NS(=O)(=O)c3ccc(C)cc3)c[nH]c2c1	9.87 µM

====

# target: Fibroblast growth factor 22 (Homo sapiens)
# method_notes: FGF22 ligand-induced thermal stabilization – biophysical, thermal shift, cherry-pick, FGF22 synaptogenesis inhibitor project, dose response (AID 687022)
# assay_setup: recombinant FGF22 thermal shift, SYPRO orange melting
Here, each record is paired with measured AbsAC1 (concentration giving Tm-shift threshold 1.0) data.
endpoint_name: AbsAC1 (concentration giving Tm-shift threshold 1.0)

1) CN(Cc1c(C(=O)N/N=C/c2ccc(O)cc2)nnn1-c1nonc1N)c1ccccc1	0.867 µM
2) O=C(Nc1ccc(F)cc1)N[C@H]1CC[C@@H](CCn2cc(-c3ccccc3F)nn2)O[C@H]1CO	10.5 µM
3) Cc1ccccc1S(=O)(=O)NCC[C@@H]1CC[C@@H](NC(=O)Nc2cccc(Cl)c2)[C@@H](CO)O1	8.07 µM
4) O=C(CNS(=O)(=O)c1ccccc1)OCC(=O)c1c[nH]c2ccccc12	9.88 µM
5) O=C(CC1SC(=O)NC1=O)Nc1ccc(Cl)cc1 (stereo not given)	3.11 µM
6) O=C(N/N=C/c1c(O)ccc2ccccc12)c1[nH]ncc1Br	23.7 µM
7) O=[N+]([O-])c1cccc(S(=O)(=O)Nc2ccc(-c3ccc(N4CCCC4)nn3)cc2)c1	19.1 µM
8) COc1ccc(NS(=O)(=O)c2ccc(Cl)c(N)c2)cc1Br	4.09 µM
9) Cc1cc(C)cc(NS(=O)(=O)c2cc3[nH]c(=O)c(=O)[nH]c3cc2C)c1	10.2 µM
10) O=C(C[C@H]1CC[C@@H]2[C@H](COC[C@H](O)CN2S(=O)(=O)c2cccc(F)c2)O1)Nc1ccccc1	3.48 µM
11) CCn1c2ccccc2c2cc(/C=N/NC(=O)c3ccncc3)ccc21	25 µM
12) O=C(Nc1ccc(S(=O)(=O)N2CCOCC2)cc1)c1ccc(F)cc1	12.7 µM
13) CC(=O)Nc1ccc(S(=O)(=O)Nc2nc3ccccc3nc2Nc2cccc(S(N)(=O)=O)c2)cc1	12.7 µM
14) O=C(Nc1ccc(Cl)cc1)N[C@H]1CC[C@H](CCNC(=O)c2cc(Cl)cc(Cl)c2)O[C@@H]1CO	34.9 µM
15) COc1cccc(NC(=O)CN(C)C(=O)c2ccc(NC3CC3)c([N+](=O)[O-])c2)c1	5.08 µM
